Test: Inhibition of Swiss mouse intestinal glucosidase
Settings: read-out: IC50
pIC50: −log10 of the molar value.
Property label: pIC50

>  <Compound smiles>
CS/C(=C/C(=O)c1ccc(Cl)cc1)Nc1nc2ccccc2s1

>  <pIC50>
4.35

$$$$

P. CS/C(=C/C(=O)c1ccc(Br)cc1)Nc1nc2ccccc2s1
Q. CCOc1ccc2nc(N/C(=C\C(=O)c3ccc(Cl)cc3)SC)sc2c1
R. CCOc1ccc2nc(N/C(=C\C(=O)c3ccc(C)cc3)SC)sc2c1
Would you mind ranking these molecules by ascending pIC50? In plain terms: list the labels in the order you were asked to.
P, R, Q
(P: 4.34, R: 4.63, Q: 4.83)
